Molecular target: unrelated Fc-fused recombinant protein
Test: ELISA, lysate on plate-bound antigen
Could you please report measured ELISA Fc Control (RSU) for the items listed next?
Enter your answer as a number in RSU; do not include the unit.

Q) Look up ELISA Fc Control (RSU) of ISOP121AR5P1H5 (designed binder, not shown: small tags and cut ends, FN3 domain; E. coli lysate in the ELISA) LPAPKNLVVSRVTEDSARLSWEDAVKHIWFDSFLIQYQESEKVGEAIVLTVPGSERSYDLTGLKPGTEYTVSIYGVWIASVWRSNPLSAIFTT and report it.
A) 960

Q) Consider the binder ISOP121AR5P1F7 (designed binder, not shown: small tags and cut ends, FN3 domain; E. coli lysate in the ELISA) LPAPKNLVVSRVTEDSARLSWQEHWDTSSNFDSFLIQYQESEKVGEAIVLTVPGSERSYDLTGLKPGTEYTISIYGVYNRKVLFYSNPLSAIFTT and give its recorded ELISA Fc Control (RSU).
A) 720

Q) Tell me its ELISA Fc Control (RSU) given ISOP194BR9P1A5 (designed binder, not shown: small tags and cut ends, FN3 domain; E. coli lysate in the ELISA) LPAPKNLVVSRVTEDSARLSWFNADEEYFDSFLIQYQESEKVGEAIVLTVPGSERSYDLTGLKPGTEYTVSIYGVYQRGYHNWFSNPLSAIFTT as the entry.
A) 800

Q) Note down ELISA Fc Control (RSU) recorded for ISOP121GR5P1B4 (designed binder, not shown: small tags and cut ends, FN3 domain; E. coli lysate in the ELISA) LPAPKNLIVSRVTEDSARLSWTAPDAAFDSFPINYGERATKGEAINLYVPGSERSYDLTGLKPGTEYWVLIGGVKGGLKSSPLWAWFTT
A) 800
